readout_type: melting point

A selection of reference data follows.
INSERT INTO assay_data (compound_structure_string, readout_type, result) VALUES
  ('Cc1ccc(C(=O)Nc2ccc(-n3nc(C(F)(F)F)cc3C(F)(F)F)cc2)cc1', 'melting point', '225 to 226 °C'),
  ('O=C(Nc1ccc(-n2nc(C(F)(F)F)cc2C(F)(F)F)cc1)c1ccc(Cl)nc1', 'melting point', '192 to 194 °C'),
  ('O=C(Nc1ccc(-n2nc(C(F)(F)F)cc2C(F)(F)F)cc1)c1ccc(I)cc1', 'melting point', '196 to 198 °C'),
  ('O=C(Nc1ccc(-n2nc(C(F)(F)F)cc2C(F)(F)F)cc1)C1CCNCC1', 'melting point', '156 to 159 °C'),
  ('[N-]=[N+]=Nc1ccc(C(=O)Nc2ccc(-n3nc(C(F)(F)F)cc3C(F)(F)F)cc2)cc1', 'melting point', '182 to 184 °C');

Request the reported melting point associated with O=C(Nc1ccc(-n2nc(C(F)(F)F)cc2C(F)(F)F)cc1)c1cc(F)c(F)c(F)c1
158 to 159 °C

What do we get for O=C(Nc1ccc(F)cc1)Nc1ccc(-n2nc(C(F)(F)F)cc2C(F)(F)F)cc1 ?
201 to 202 °C

Can you handle O=C(Nc1ccc(-n2nc(C(F)(F)F)cc2C(F)(F)F)cc1)c1ccccc1F next?
188 to 190 °C

Consider next the compound CC1(C(=O)Nc2ccc(-n3nc(C(F)(F)F)cc3C(F)(F)F)cc2)CC1 in the same way.
109 to 110 °C

Entry Cc1c(Cl)cccc1NC(=O)Nc1ccc(-n2nc(C(F)(F)F)cc2C(F)(F)F)cc1 please
193 to 196 °C

====

Test system: Human peripheral blood mononuclear cells
Experiment: Human Concanavalin-A Proliferation Assay (Con HU Assay)
Type: cell-based
Details: Homo sapiens, PBMC, 72 h, concentration 100 μm (in parentheses in the cell); concanavalin-A stimulated human PBMC, 3 days; read-out: % Inhibition of proliferation (at concentrations of 1,10, or 100 μm)
Protocol: Human peripheral blood mononuclear cells were cultured in RPMI 1640 medium supplemented with 10 μg/ml gentamicin, 50 μM 2-mercaptoethanol, 1X MEM non-essential amino acids (Sigma Chemical Co., St. Louis, Mo.), 100 U/ml sodium penicillin G, 100 μg/ml streptomycin sulfate, 2 mM L-glutamine, 1 mM sodium pyruvate (Life Technologies, Grand Island, N.Y.) and 10% fetal bovine serum (Hyclone, Logan, Utah) at 37° C. with 5% CO2. […]
Listing of recorded inhibition at 100 µM by entry.
// return numeric value only (unit: %, not printed)

Worked cases, inhibition at 100 µM given:
INSERT INTO measurements (molecule, target_under_test, result) VALUES
  ('O=C(Nc1ccc(-n2nc(C(F)(F)F)cc2C(F)(F)F)cc1)c1ccoc1 [Example 14]', 'Human peripheral blood mononuclear cells', 97),
  ('O=C(Nc1ccc(-n2nc(C(F)(F)F)cc2C(F)(F)F)cc1)c1sccc1Br [Example 161]', 'Human peripheral blood mononuclear cells', 99),
  ('O=C(Nc1ccc(-n2nc(C(F)(F)F)cc2C(F)(F)F)cc1)c1cccc(F)c1 [Example 146]', 'Human peripheral blood mononuclear cells', 98),
  ('O=C(Nc1ccc(-n2nc(C(F)(F)F)cc2C(F)(F)F)cc1)c1nc(Cl)ccc1Cl [Example 167]', 'Human peripheral blood mononuclear cells', 100);

Need inhibition at 100 µM of O=C(Nc1ccc(-n2nc(C(F)(F)F)cc2C(F)(F)F)cc1)c1ccc(F)cc1F [Example 135] , thanks.
100

Also check N#Cc1cccc(C(=O)Nc2ccc(-n3nc(C(F)(F)F)cc3C(F)(F)F)cc2)c1 [Example 137]
98

Try the molecule O=C(Nc1ccc(-n2nc(C(F)(F)F)cc2C(F)(F)F)cc1)c1ccccc1F [Example 114]
98

What do we get for O=C(Nc1ccc(-n2nc(C(F)(F)F)cc2C(F)(F)F)cc1)c1ccc2c(c1)OCO2 [Example 148] ?
94

Similarly, FC(F)(F)c1cc(C(F)(F)F)n(-c2ccc(NCc3ccccc3Cl)cc2)n1 [Example 82] ?
100

Lookup CCOC(=O)c1cccc(NC(=O)Nc2ccc(-n3nc(C(F)(F)F)cc3C(F)(F)F)cc2)c1 [Example 13]
99

Same again, this time with Cc1cc(C(F)(F)F)nn1-c1ccc(NC(=O)c2ccc(Cl)cc2)cc1 [Example 281]
94

Another molecule to check: O=C(Nc1ccc(-n2nc(C(F)(F)F)cc2C(F)(F)F)cc1)c1ccc([N+](=O)[O-])cc1 [Example 93]
100

Entry to check: COC(=O)c1cccc(C(=O)Nc2ccc(-n3nc(C(F)(F)F)cc3C(F)(F)F)cc2)c1 [Example 129]
100

Also Cc1noc(C)c1C(=O)Nc1ccc(-n2nc(C(F)(F)F)cc2C(F)(F)F)c(Cl)c1 [Example 277] ?
99

Check CC(=O)Oc1ccccc1C(=O)Nc1ccc(-n2nc(C(F)(F)F)cc2C(F)(F)F)cc1 [Example 76] too.
100

Now the same for CC(C)=CC(=O)Nc1ccc(-n2nc(C(F)(F)F)cc2C(F)(F)F)cc1 [Example 102]
100

How about O=C(Nc1ccc(-n2nc(C(F)(F)F)cc2C(F)(F)F)cc1)c1ccc(Cl)cc1[N+](=O)[O-] [Example 117] ?
100

Try the molecule CCCCCc1ccc(C(=O)Nc2ccc(-n3nc(C(F)(F)F)cc3C(F)(F)F)cc2)c(=O)o1 [Example 4]
82

Item: O=C(Nc1ccc(-n2nc(C(F)(F)F)cc2C(F)(F)F)cc1)c1ccccc1Cl [Example 91]
99

Input N#Cc1ccc(C(=O)Nc2ccc(-n3nc(C(F)(F)F)cc3C(F)(F)F)cc2)cc1 [Example 67]
100

Again, but for O=C(Nc1ccc(-n2nc(C(F)(F)F)cc2C(F)(F)F)cc1)c1ccccc1Br [Example 147]
99

Same for O=C(Nc1ccc(-n2nc(C(F)(F)F)cc2C(F)(F)F)cc1)c1ccccc1[N+](=O)[O-] [Example 136]
99

Same question for O=C(Nc1ccc(-n2nc(C(F)(F)F)cc2C(F)(F)F)cc1)c1ccnc(Cl)c1 [Example 245] please.
100

Please give the result for Nc1ccccc1C(=O)Nc1ccc(-n2nc(C(F)(F)F)cc2C(F)(F)F)cc1 [Example 163] too.
98

Proceed to Cc1ccc(C(=O)Nc2ccc(-n3nc(C(F)(F)F)cc3C(F)(F)F)cc2)cc1 [Example 100]
75

Try the molecule O=C(Nc1ccc(-n2nc(C(F)(F)F)cc2C(F)(F)F)cc1)c1ccccc1C(F)(F)F [Example 127]
100

Do the same for O=C(Nc1ccc(-n2nc(C(F)(F)F)cc2C(F)(F)F)cc1)c1cccc(O)c1 [Example 104] please
99

Let us now turn to O=C(Nc1ccc(-n2nc(C(F)(F)F)cc2C(F)(F)F)cc1)c1ccc(Br)cc1 [Example 85]
93
